Entries and their measured T/C follow.
- Test system: BDF1 mice, P388 leukemia ip, median survival T/C
- method description: NCI In Vivo Anticancer Drug Screen. Data for tumor model P388 Leukemia (intraperitoneal) in B6D2F1 (BDF1) mice
- conditions: endpoint: median survival time; dose: 100.0 mg/kg/injection; schedule: Q01DX009 (ip); vehicle: Klucel (hydroxypropylcellulose) (HPC); higher = longer survival
- Method: The antitumor activity of compounds was measured in mice bearing transplantable tumors. Survival or tumor size were measured and the results are expressed as the measurement made in the treated group (T) divided by the measurement made in the vehicle treated control group (C). The tumor model used in this assay is P388 Leukemia (intraperitoneal) in B6D2F1 (BDF1) mice
Toxic doses and inconclusive results are not listed.

Here are 3 molecules together with their reported answers.
O=S(=O)(NS(=O)(=O)c1ccc(Cl)cc1)c1ccc(Cl)cc1 | 115 % of control
Cc1ccccc1C1c2ccccc2C(=O)c2cccc(C)c21 (stereo not given) | 105 % of control
CC(C)(C)C1C2N1C1(c3ccccc3)OC2(c2ccccc2)c2ccccc21 (stereo not given) | 100 % of control

Provide one value: measured T/C of COc1ccc(C(=O)/C=C/c2ccccc2)c(O)c1CC=C(C)C (tested in a mixture with another compound) 92 % of control

Provide one value: measured T/C of Cc1ccc(S(=O)(=O)OCCC2CCCCC2COS(=O)(=O)c2ccc(C)cc2)cc1 (stereo not given) 105 % of control

Provide one value: measured T/C of ClC(Cl)(Cl)c1ccc(C(Cl)(Cl)Cl)cc1 100 % of control

Provide one value: measured T/C of BrCc1ccc2c3c(ccc(CBr)c13)CC2 95 % of control

Provide one value: measured T/C of CCOC(=O)Nc1ccc2c(c1)/C(=N\NC(N)=S)c1ccccc1-2 90 % of control

Provide one value: measured T/C of CCCc1nc2c(OC)ccc(OC)c2nc1C 100 % of control

Provide one value: measured T/C of CC1(C)CC(C)(c2ccccc2)c2ccccc21 (stereo not given) 120 % of control

====

- Test system: BDF1 mice, P388 leukemia ip, median survival T/C
- method description: NCI In Vivo Anticancer Drug Screen. Data for tumor model P388 Leukemia (intraperitoneal) in B6D2F1 (BDF1) mice
- conditions: endpoint: median survival time; dose: 200.0 mg/kg/injection; schedule: Q01DX009 (ip); vehicle: Klucel (hydroxypropylcellulose) (HPC); higher = longer survival
Inconclusive results and toxic doses are left out.
measured parameter: T/C

Here are 4 compounds together with their reported answers.
Nc1ccccc1SC1CC(=O)N(c2cccc3ccccc23)C1=O (configuration not stated) | 118 % of control
C[C@]12CCC(=O)C=C1CC[C@@H]1C2=CC[C@@]2(C)[C@H]1CC[C@]2(C)O | 87 % of control
COc1ccc(OC)c(C(=O)CCCC(=O)O)c1 | 90 % of control
Clc1ccc(N=Cc2ccccc2)cc1 | 90 % of control

Provide one value: measured T/C of COC(=O)C(Br)C(OC)c1ccccc1 (configuration not stated) 95 % of control

Provide one value: measured T/C of Cc1cc(N(C)C)ccc1C=O 95 % of control

====

- Test system: BDF1 mice, P388 leukemia ip, median survival T/C
- method description: NCI In Vivo Anticancer Drug Screen. Data for tumor model P388 Leukemia (intraperitoneal) in B6D2F1 (BDF1) mice
- conditions: endpoint: median survival time; dose: 50.0 mg/kg/injection; schedule: Q01DX009 (ip); vehicle: saline with Tween-80; higher = longer survival
Toxic doses and inconclusive results are not listed.
measured parameter: T/C

Here are 8 molecules together with their reported answers.
S=c1nn[nH]n1-c1ccccc1.[Zn+2] | 109 % of control
CC(C)(O)c1ccccc1S(=O)c1ccc(Cl)cc1 (centres undefined) | 100 % of control
CCO/C=C1\SC(=S)N(c2ccco2)C1=O | 100 % of control
COc1ccc(C(=O)C/C(=N\N(C(=O)c2ccc(OC)cc2)c2ccccc2)c2ccc(OC)cc2)cc1 | 104 % of control
Cn1c(O)c(N=NC(N)=S)c2ccccc21 | 90 % of control
BrCC(Br)CBr | 104 % of control
COC1(C(C)(C)C)C=C(C)/C(=C2\C(=O)Oc3c2cc(C)cc3C(C)(C)C)O1 (centres undefined) | 99 % of control
CCCCC(C)(O)CC (centres undefined) | 109 % of control

Provide one value: measured T/C of O=C(C[N+]12CN3CN(CN(C3)C1)C2)c1ccc(Cl)cc1 107 % of control

Provide one value: measured T/C of O=C(Nc1cccc(Cl)c1)N1c2ccccc2SC1c1ccco1 (centres undefined) 91 % of control

Provide one value: measured T/C of [Cl][Cr]([Cl])[Cl].[NH-]CC[N-]CC[NH-] 116 % of control

====

- System: BDF1 mice, P388 leukemia ip, median survival T/C
- method description: NCI In Vivo Anticancer Drug Screen. Data for tumor model P388 Leukemia (intraperitoneal) in B6D2F1 (BDF1) mice
- conditions: endpoint: median survival time; dose: 200.0 mg/kg/injection; schedule: Q01DX009 (ip); vehicle: saline
Inconclusive results and toxic doses are left out. How the source made its calls: active means survival T/C of 150% or more; inactive means T/C below 125% in these data.
Lab note: assign the record to one of yes (1) for active, no (0) for inactive

Given C=CN1CCCC1=O , state the outcome it received in this test. no (0)

Given CC#CCOCC1CN(C)C(=O)O1 (stereo not drawn) , state the outcome it received in this test. no (0)

Given NC(=O)N(CCO)CCO , state the outcome it received in this test. no (0)

Given [O-][n+]1c(CN2CCCCC2)nc2cccc3c2c1-c1ccccc1-3 , state the outcome it received in this test. yes (1)

====

- System: BDF1 mice, P388 leukemia ip, median survival T/C
- method description: NCI In Vivo Anticancer Drug Screen. Data for tumor model P388 Leukemia (intraperitoneal) in B6D2F1 (BDF1) mice
- conditions: endpoint: median survival time; dose: 400.0 mg/kg/injection; schedule: Q01DX009 (ip); vehicle: Klucel (hydroxypropylcellulose) (HPC); higher = longer survival
Toxic doses and inconclusive results are not listed.
Entries and their measured T/C follow.

Here are 4 compounds together with their reported answers.
CC(=O)Nc1ccc(C=Nc2ccc3c(c2)Cc2ccccc2-3)cc1 | 118 % of control
COc1cc2c(cc1OC)-c1ncnc(-c3ccccc3)c1C2 | 95 % of control
Nc1ccccc1SC1CC(=O)N(c2cccc3ccccc23)C1=O (stereo not given) | 100 % of control
CC1(C)CC2(OC2c2ccccc2)C(C)(O)c2ccccc21 (stereo not given) | 100 % of control

Look up and report T/C, with BDF1 mice, P388 leukemia ip, median survival T/C as system, for CN(CCC(=O)c1cccc2ccccc12)Cc1ccccc1 105 % of control

Look up and report T/C, with BDF1 mice, P388 leukemia ip, median survival T/C as system, for O=C(O)C1=NN(c2cc(Cl)c(S(=O)(=O)O)cc2Cl)C(=O)C1 104 % of control

Look up and report T/C, with BDF1 mice, P388 leukemia ip, median survival T/C as system, for CCOC(=O)C1CCC(C(=O)OCC)N1c1ccc(C=O)cc1 (stereo not given) 122 % of control

Look up and report T/C, with BDF1 mice, P388 leukemia ip, median survival T/C as system, for O=C(NCCO)c1cc2ccccc2cc1O 100 % of control

Look up and report T/C, with BDF1 mice, P388 leukemia ip, median survival T/C as system, for N#Cc1c(N)sc(N)c1C#N 110 % of control

====

- System: BDF1 mice, P388 leukemia ip, median survival T/C
- method description: NCI In Vivo Anticancer Drug Screen. Data for tumor model P388 Leukemia (intraperitoneal) in B6D2F1 (BDF1) mice
- conditions: endpoint: median survival time; dose: 50.0 mg/kg/injection; schedule: Q01DX009 (ip); vehicle: saline with Tween-80; higher = longer survival
Inconclusive results and toxic doses are left out.
measured parameter: T/C

Here are 5 compounds together with their reported answers.
CCOC(=O)C1(C)C=C(Nc2ccc(OC)cc2)C(=O)N1c1ccc(OC)cc1 (centres undefined) | 95 % of control
c1ccc(CN2C3Oc4ccccc4C2Oc2ccccc23)cc1 | 94 % of control
CCOC1=NCCCCCCC1 | 98 % of control
O=S(=O)(Nc1ccc(-c2ccccc2)cc1)c1ccccc1 | 108 % of control
CCN(CC)CC(=O)Nc1ccc(Cl)cc1Cc1ccccc1 | 110 % of control

Provide one value: measured T/C of CCC[n+]1ccc(/C=N\NC(N)=S)c2ccccc21 103 % of control

Provide one value: measured T/C of CCSC1(SCC)C(=O)OC2=C(CCCC2)C1N(C)c1ccccc1 (centres undefined) 96 % of control

Provide one value: measured T/C of CC/C(C)=N/Nc1nncn2c1cc1ccccc12 94 % of control

Provide one value: measured T/C of COc1ccc(C(=S)N2CCN(c3ccccc3)CC2)cc1 95 % of control

Ref: PubChem BioAssay AID328
